For each entry below, report its IC50 value.
# output: bare number, implied unit nM

Case Cc1noc2ncnc(Oc3ccc(C(C)(C)C(=O)NO)cc3)c12 , ENPP1 (hENPP1-ECD-His) (Homo sapiens (Human), UniProt P22413), IC50 recorded as 284

Case COc1cc(Nc2ncnc3c2cnn3C)ccc1C(C)(C)C(=O)NO , ENPP1 (hENPP1-ECD-His) (Homo sapiens (Human), UniProt P22413), IC50 recorded as 21

Case COc1ccc2c(Oc3cc(F)c(C(C)(C)C(=O)NO)c(F)c3)ccnc2n1 , ENPP1 (hENPP1-ECD-His) (Homo sapiens (Human), UniProt P22413), IC50 recorded as 16

Case COc1ccc2c(Oc3ccc(C(C(=O)NO)C4CCCC4)cc3)ccnc2n1 (stereo not shown) , ENPP1 (hENPP1-ECD-His) (Homo sapiens (Human), UniProt P22413), IC50 recorded as 18

Case COc1ccc2c(N[C@H]3CCN(C(C)(C)C(=O)NO)C3)ccnc2n1 , ENPP1 (hENPP1-ECD-His) (Homo sapiens (Human), UniProt P22413), IC50 recorded as 3.3

Case CCn1ncc2c(Oc3cccc(C(=O)NO)c3)ccnc21 , ENPP1 (hENPP1-ECD-His) (Homo sapiens (Human), UniProt P22413), IC50 recorded as 289

Case Cn1ncc2c(Oc3ccc(C4(C(=O)NO)CCOCC4)c(Cl)c3)ccnc21 , ENPP1 (hENPP1-ECD-His) (Homo sapiens (Human), UniProt P22413), IC50 recorded as 111

Case COc1ccc2c(Oc3ccc(CC(=O)NO)cc3)ncnc2c1 , ENPP1 (hENPP1-ECD-His) (Homo sapiens (Human), UniProt P22413), IC50 recorded as 2.17

Case COc1ccc2c(Nc3ccc(CC(=O)NO)c(Cl)c3)ccnc2n1 , ENPP1 (hENPP1-ECD-His) (Homo sapiens (Human), UniProt P22413), IC50 recorded as 1.8

Case CCn1ncc2c(Nc3ccc(C(C)(C)C(=O)NO)cc3)ccnc21 , ENPP1 (hENPP1-ECD-His) (Homo sapiens (Human), UniProt P22413), IC50 recorded as 1.7

Case COc1ccc2c(Nc3cnn(C(C(=O)NO)C(C)C)c3)ccnc2n1 (stereo not shown) , ENPP1 (hENPP1-ECD-His) (Homo sapiens (Human), UniProt P22413), IC50 recorded as 103

Case COc1ccc2c(Nc3ccc4c(c3)CCC4C(=O)NO)ccnc2n1 (stereo not shown) , ENPP1 (hENPP1-ECD-His) (Homo sapiens (Human), UniProt P22413), IC50 recorded as 2.5

Case COc1ccc2c(Oc3cc(F)c(C(C)(C)C(=O)NO)cc3F)ccnc2n1 , ENPP1 (hENPP1-ECD-His) (Homo sapiens (Human), UniProt P22413), IC50 recorded as 2.5

Case COc1ccc2c(Oc3c(F)cc(C4(C(=O)NO)CCOCC4)cc3F)ccnc2n1 , ENPP1 (hENPP1-ECD-His) (Homo sapiens (Human), UniProt P22413), IC50 recorded as 2.6

Case O=C(Cc1ccc(Nc2ncnc3cnccc23)cc1)NO , ENPP1 (hENPP1-ECD-His) (Homo sapiens (Human), UniProt P22413), IC50 recorded as 49

Case Cn1ncc2c(Oc3ccc(CC(=O)NO)cc3)ccnc21 , ENPP1 (hENPP1-ECD-His) (Homo sapiens (Human), UniProt P22413), IC50 recorded as 14

Case COc1ccc2c(Nc3cnn(C4(C(=O)NO)CCOCC4)c3)ccnc2n1 , ENPP1 (hENPP1-ECD-His) (Homo sapiens (Human), UniProt P22413), IC50 recorded as 2.1

Case COc1ccc2c(Nc3ccc(C4(C(=O)NO)CCOCC4)cc3)c(C#N)cnc2c1 , ENPP1 (hENPP1-ECD-His) (Homo sapiens (Human), UniProt P22413), IC50 recorded as 1.6

Case Cc1nn(C)c2nccc(Oc3ccc(C(C)(C)C(=O)NO)cc3)c12 , ENPP1 (hENPP1-ECD-His) (Homo sapiens (Human), UniProt P22413), IC50 recorded as 6.1

Case CCn1nc(C)c2c(Nc3ccc(CC(=O)NO)cc3)ncnc21 , ENPP1 (hENPP1-ECD-His) (Homo sapiens (Human), UniProt P22413), IC50 recorded as 7.8

Case COc1ccc2c(Nc3cnn(C(C)(C)C(=O)NO)c3)ccnc2n1 , ENPP1 (hENPP1-ECD-His) (Homo sapiens (Human), UniProt P22413), IC50 recorded as 1.5

Case COc1ccc2c(Oc3ccc(CC(=O)NO)cc3C)ccnc2n1 , ENPP1 (hENPP1-ECD-His) (Homo sapiens (Human), UniProt P22413), IC50 recorded as 3.1

Case COc1ccc2c(Nc3ccc(C(C)C(=O)NO)c(F)c3)ccnc2n1 (stereo not shown) , ENPP1 (hENPP1-ECD-His) (Homo sapiens (Human), UniProt P22413), IC50 recorded as 1.7

Case COc1ccc2c(Nc3ccc(CC(=O)NO)cc3)ncnc2n1 , ENPP1 (hENPP1-ECD-His) (Homo sapiens (Human), UniProt P22413), IC50 recorded as 1.8

Case Cc1nn(C)c2nccc(Nc3ccc(CC(=O)NO)cc3)c12 , ENPP1 (hENPP1-ECD-His) (Homo sapiens (Human), UniProt P22413), IC50 recorded as 4.3

Case COc1ccc2c(Nc3ccc(CC(=O)NO)cc3)ccnc2c1 , ENPP1 (hENPP1-ECD-His) (Homo sapiens (Human), UniProt P22413), IC50 recorded as 2.62

Case CCn1ncc2c(Nc3ccc(CC(=O)NO)cc3F)ccnc21 , ENPP1 (hENPP1-ECD-His) (Homo sapiens (Human), UniProt P22413), IC50 recorded as 1.4

Case COc1ccc2c(N(C)c3ccc(C(C)(C)C(=O)NO)cc3)ccnc2n1 , ENPP1 (hENPP1-ECD-His) (Homo sapiens (Human), UniProt P22413), IC50 recorded as 162

Case O=C(Cc1ccc(Nc2ncnc3ncccc23)cc1)NO , ENPP1 (hENPP1-ECD-His) (Homo sapiens (Human), UniProt P22413), IC50 recorded as 205

Case COc1cc2nccc(Nc3c(F)cc(C(C(=O)NO)C(C)C)cc3F)c2cn1 (stereo not shown) , ENPP1 (hENPP1-ECD-His) (Homo sapiens (Human), UniProt P22413), IC50 recorded as 3.6

Case Cn1ncc2ncnc(Nc3ccc(CC(=O)NO)cc3)c21 , ENPP1 (hENPP1-ECD-His) (Homo sapiens (Human), UniProt P22413), IC50 recorded as 14

Case CCn1ncc2c(Nc3ccc(C(C)(C)C(=O)NO)cc3)ncnc21 , ENPP1 (hENPP1-ECD-His) (Homo sapiens (Human), UniProt P22413), IC50 recorded as 1.2

Case COc1ccc2c(Oc3ccc(C(C)(C)C(=O)NO)c(C)c3)ccnc2n1 , ENPP1 (hENPP1-ECD-His) (Homo sapiens (Human), UniProt P22413), IC50 recorded as 2.3

Case COc1cc2nccc(Nc3ccc(C4(C(=O)NO)CCOCC4)c(F)c3)c2cn1 , ENPP1 (hENPP1-ECD-His) (Homo sapiens (Human), UniProt P22413), IC50 recorded as 1.9

Case COc1cc2nccc(Oc3ccc(CC(=O)NO)cc3)c2cn1 , ENPP1 (hENPP1-ECD-His) (Homo sapiens (Human), UniProt P22413), IC50 recorded as 2.9

Case CCn1ncc2c(Nc3ccc(CC(=O)NO)c(Cl)c3)ccnc21 , ENPP1 (hENPP1-ECD-His) (Homo sapiens (Human), UniProt P22413), IC50 recorded as 1.2

Case COc1ccc2c(Oc3ccc(C(CC(C)C)C(=O)NO)c(F)c3)ccnc2n1 (stereo not shown) , ENPP1 (hENPP1-ECD-His) (Homo sapiens (Human), UniProt P22413), IC50 recorded as 11

Recorded values, source patent US20240383893A1.
